Values from PubChem BioAssay (NCI)

# Tested on: RXF 393 renal
# test details: NCI tumour cell line growth inhibition, 48 h
*1 amine or outer side, *2 acyl side, *3 side chain or, on linkers, in order; H or OH if unused. Where a SMILES comes first, the peptide text is derived from it. Bridges are numbered along the chain shown (N, C = ends). Roman numbers before positions name the chains, in order. [ ]: non-standard residue; d: D form. Actinocin(9to1) = Cc1c2oc3c(C)ccc(C(=O)[*:1])c3nc-2c(C(=O)[*:2])c(N)c1=O; NMeV = CN[CH](C(=O)O)C(C)C; Sar = CNCC(=O)O
Each entry below lists one item and its recorded TGI value.
# number only, unit µM dropped from output

Reference set (6 entries):
compound="CN(C)CC(O)c1ccc(/C=C/c2ccc(Cl)cc2)cc1 (stereo not given)" outcome_measure=TGI numeric_value=16.2
compound="O=C1OCC2=C1C(c1cccc(Br)c1)c1cc3c(cc1N2CCO)OCCO3 (stereo not given)" outcome_measure=TGI numeric_value=0.0361
compound=C=C1c2nc3ccccc3n2C=C(c2ccc(OC)cc2)N1c1ccc(OC)cc1 outcome_measure=TGI numeric_value=29.8
compound=CC[C@@H](c1ccc(O)c(O)c1)[C@@H](CC)c1ccc(O)c(O)c1 outcome_measure=TGI numeric_value=7.59
compound="Cc1c2oc3c(C)ccc(C(=O)NC4C(=O)NC(C(C)C)C(=O)N5CCCC5C(=O)N(C)CC(=O)N(C)C(C(C)C)C(=O)OC4C)c3nc-2c(C(=O)NC2C(=O)NC(C(C)C)C(=O)N3CCCC3C(=O)N(C)CC(=O)N(C)C(C(C)C)C(=O)OC2C)c(N)c1=O (stereo not given) (I: TVP[Sar][NMeV] / II: TVP[Sar][NMeV]; ester I:1-I:C, II:1-II:C; linker I:N-II:N via Actinocin(9to1); configuration not given here)" outcome_measure=TGI numeric_value=0.00653
compound="O=C(Nc1nc(=S)[nH][nH]1)C(=O)C(C(=O)c1ccc2ccccc2c1)C1OC(=O)c2ccccc21 (stereo not given)" outcome_measure=TGI numeric_value=26.8

Consider now this further compound.
stdin: Item COc1cc(OCCN(C)C)c2[nH]c(C(=O)N3CC(CCl)c4ccc(N)cc43)cc2c1 (stereo not given) : provide TGI
stdout: 0.033
